tested on: mice; assay: SmartCube in vivo neuropharmacological behavioral assay; details: SmartCube, i.p. 15 min before test, result at the MED
Where a name gives a salt, the structure may show the parent alone.
measuredAttribute: AG: analgesic (percent probability)

Field: example entries. Status: answers known.
- CCC(CC)N1C2CCCC1c1ccccc12: + (LOQ ≤ X < 5%)
- CN1C2CCCC1c1ccccc12 [Compound 3, hydrochloride]: ++ (5% ≤ X < 25%)
- FC1CCC2NC1c1ccccc12 (stereo not shown) [Compound 30, hydrochloride]: + (LOQ ≤ X < 5%)
- CC(C)N1C2CC[C@H](C)C1c1ccccc12 (stereo in doubt) [Compound 33, hydrochloride]: + (LOQ ≤ X < 5%)
- c1ccc2c(c1)C1CCCC2N1C1CCC1 [Compound 10, hydrochloride]: ++ (5% ≤ X < 25%)
- CC(C)N1C2CCC(F)C1c1ccccc12 (stereo not shown) [Compound 35, hydrochloride]: ++ (5% ≤ X < 25%)
- FCC(CF)N1C2CCCC1c1ccccc12 [Compound 14, hydrochloride]: +++ (25% ≤ X < 50%)
- CCN1C2CCCC1c1ccccc12 [Compound 6, hydrochloride]: ++ (5% ≤ X < 25%)
- CC1CC2c3ccccc3C(C1)N2C1CC1 (stereo not shown) [Compound 38, hydrochloride]: + (LOQ ≤ X < 5%)

For the next question, use this molecule.
# value lookup — system mice, readout AG: analgesic (percent probability), item CCCN1C2CCCC1c1ccccc12 [Compound 7, hydrochloride]
+++ (25% ≤ X < 50%)

---

tested on: mice; test: SmartCube in vivo neuropharmacological behavioral assay; settings: SmartCube, i.p. 15 min before test, result at the MED
Structures can show the parent of a compound that is named as a salt.
measuredAttribute: AD: antidepressant (percent probability)

- CC(C1CC1)N1C2CCCC1c1ccccc12 (stereo not shown) [Compound 21, hydrochloride]: +++ (25% ≤ X < 50%)
- CC1CC2c3ccccc3C(C1)N2C1CCC1 (stereo not shown) [Compound 36, hydrochloride]: ++++ (50% ≤ X < 100%)
- CC(C)N1[C@@H]2C[C@@H](C)C[C@H]1c1ccccc12 [Compound 31, hydrochloride]: ++++ (50% ≤ X < 100%)
- c1ccc2c(c1)C1CCCC2N1C1CCOC1 (stereo not shown) [Compound 9, hydrochloride]: +++ (25% ≤ X < 50%)

Which AD: antidepressant (percent probability) value is on record for CN1C2CCCC1c1ccccc12 [Compound 3, hydrochloride] ?
+++ (25% ≤ X < 50%)

Further, for CC1CC2NC(C1)c1ccccc12 (stereo not shown) [Compound 29, hydrochloride] ?
++ (5% ≤ X < 25%)

And CO[C@H]1CC[C@H]2c3ccccc3[C@@H]1N2C(C)C (stereo in doubt) [Compound 28, hydrochloride] ?
++ (5% ≤ X < 25%)

---

test system: mice; experiment: SmartCube in vivo neuropharmacological behavioral assay; details: SmartCube, i.p. 15 min before test, result at the MED
Counter-ions that a name gives are not always drawn.
measuredAttribute: AD: antidepressant (percent probability)

• c1ccc2c(c1)CC(N1C3CCCC1c1ccccc13)C2 [Compound 11, hydrochloride] = + (LOQ ≤ X < 5%)
• C[C@H]1CC[C@@H]2N[C@H]1c1ccccc12 (stereo in doubt) [Compound 32, hydrochloride] = + (LOQ ≤ X < 5%)

---

Tested on: mice
Assay: SmartCube in vivo neuropharmacological behavioral assay
Conditions: SmartCube, i.p. 15 min before test, result at the MED
Experimental: The compounds were evaluated for their CNS related properties (e.g., the treatment, prevention or diagnosis of CNS or CNS-related disorders and/or amelioration of symptoms) using neuropharmacological screening methods described in S. L. Roberts et al., Front. Neurosci. 2011, 5:103 (hereinafter referred to as “Roberts,” the contents of which are incorporated herein by reference in their entirety). […] According to the present disclosure, compounds identified may be evaluated using the SmartCube® system. […]
Structures can show the parent of a compound that is named as a salt.
measuredAttribute: AX: anxiolytic (percent probability)

* FC1CCC2NC1c1ccccc12 (stereo not shown) [Compound 30, hydrochloride] | ++ (5% ≤ X < 25%)
* c1ccc(CCN2C3CCCC2c2ccccc23)cc1 [Compound 5] | ++ (5% ≤ X < 25%)
* CCCC(C)N1C2CCCC1c1ccccc12 (stereo not shown) [Compound 16, hydrochloride] | ++ (5% ≤ X < 25%)
* CC(C1CC1)N1C2CCCC1c1ccccc12 (stereo not shown) [Compound 21, hydrochloride] | ++ (5% ≤ X < 25%)
* CC1CC2c3ccccc3C(C1)N2C1CC1 (stereo not shown) [Compound 38, hydrochloride] | + (LOQ ≤ X < 5%)

Endpoint output: AX: anxiolytic (percent probability) of c1ccc2c(c1)C1CCCC2N1C1CC1 [Compound 15, hydrochloride] . Value?
++ (5% ≤ X < 25%)

Next entry: CC(C)C(C)N1C2CCCC1c1ccccc12 (stereo not shown) [Compound 22, hydrochloride]
+ (LOQ ≤ X < 5%)

Same for CCN1C2CCCC1c1ccccc12 [Compound 6, hydrochloride]
++ (5% ≤ X < 25%)

---

Test system: mice
Experiment: SmartCube in vivo neuropharmacological behavioral assay
Details: SmartCube, i.p. 15 min before test, result at the MED
Experimental: The compounds were evaluated for their CNS related properties (e.g., the treatment, prevention or diagnosis of CNS or CNS-related disorders and/or amelioration of symptoms) using neuropharmacological screening methods described in S. L. Roberts et al., Front. Neurosci. 2011, 5:103 (hereinafter referred to as “Roberts,” the contents of which are incorporated herein by reference in their entirety). […] According to the present disclosure, compounds identified may be evaluated using the SmartCube® system. […]
Counter-ions that a name gives are not always drawn.
measuredAttribute: UN: uncharacterized CNS activity (percent probability)

Use the examples below as a reference point.
• CC(C)N1[C@@H]2C[C@@H](C)C[C@H]1c1ccccc12 [Compound 31, hydrochloride] = + (LOQ ≤ X < 5%)
• CN1C2CCCC1c1ccccc12 [Compound 3, hydrochloride] = ++ (5% ≤ X < 25%)
• FC1CCC2NC1c1ccccc12 (stereo not shown) [Compound 30, hydrochloride] = + (LOQ ≤ X < 5%)
• FCC(CF)N1C2CCCC1c1ccccc12 [Compound 14, hydrochloride] = + (LOQ ≤ X < 5%)
• CCC(C)N1C2CC(C)CC1c1ccccc12 (stereo not shown) [Compound 37, hydrochloride] = + (LOQ ≤ X < 5%)

Could you now consider this next compound?
Please give the measured UN: uncharacterized CNS activity (percent probability) for this compound: CCC(C)N1C2CCCC1c1ccccc12 (stereo not shown)
+++ (25% ≤ X < 50%)

---

tested on: mice; test: SmartCube in vivo neuropharmacological behavioral assay; conditions: Mus musculus, ip, 0.25 h; dose having 50% or more total activity in SmartCube, i.p.; read-out: MED (minimal effective dose)
Where a name gives a salt, the structure may show the parent alone.
measuredAttribute: minimal effective dose

- CC(C)N1C2CC[C@H](C)C1c1ccccc12 (stereo in doubt) [Compound 33, hydrochloride]: 1 to 10 mg/kg
- CC(C)N1C2CCC(O)C1c1ccccc12 (stereo not shown) [Compound 27, hydrochloride]: 10 to 30 mg/kg
- CC(C)N1C2CCCC1c1cc(F)c(F)cc12: 10 to 30 mg/kg
- CC[C@@H](C)N1C2CCCC1c1ccccc12 [Compound 25, hydrochloride]: 1 to 10 mg/kg
- c1ccc2c(c1)C1CCCC2N1C1CCOC1 (stereo not shown) [Compound 9, hydrochloride]: 10 to 30 mg/kg
- CO[C@H]1CC[C@H]2c3ccccc3[C@@H]1N2C(C)C (stereo in doubt) [Compound 28, hydrochloride]: 10 to 30 mg/kg
- CC1CC2c3ccccc3C(C1)N2C1CC1 (stereo not shown) [Compound 38, hydrochloride]: 10 to 30 mg/kg
- CC([C@@H](C)F)N1C2CCCC1c1ccccc12 (stereo in doubt) [Compound 23, hydrochloride]: > 30 mg/kg

// returns reported minimal effective dose for input `CCC(CC)N1C2CCCC1c1ccccc12`
10 to 30 mg/kg

Can you handle CCN1C2CCCC1c1ccccc12 [Compound 6, hydrochloride] next?
10 to 30 mg/kg

Also need `CC(C)N1C2CCCC1c1ccccc12` , thanks.
1 to 10 mg/kg

Cool, now CC(C)N1[C@@H]2C[C@@H](C)C[C@H]1c1ccccc12 [Compound 31, hydrochloride]
1 to 10 mg/kg

Item: c1ccc2c(c1)C1CCCC2N1C1CCCCC1 [Compound 13, hydrochloride]
10 to 30 mg/kg

Repeat for the following compound: CC[C@H](C)N1C2CCCC1c1ccccc12 [Compound 26, hydrochloride]
1 to 10 mg/kg

Another compound to look at: c1ccc2c(c1)C1CCCC2N1C1CCCC1 [Compound 4, hydrochloride]
1 to 10 mg/kg

Next record, please: CC([C@H](C)F)N1C2CCCC1c1ccccc12 (stereo in doubt) [Compound 24, hydrochloride]
10 to 30 mg/kg

Note, next up: CC(C)C(C)N1C2CCCC1c1ccccc12 (stereo not shown) [Compound 22, hydrochloride]
1 to 10 mg/kg

Input CC1CC2c3ccccc3C(C1)N2C1CCC1 (stereo not shown) [Compound 36, hydrochloride]
1 to 10 mg/kg

Another compound to check: c1ccc2c(c1)C1CCCC2N1C1CCC1 [Compound 10, hydrochloride]
1 to 10 mg/kg

Check Fc1cc2c(cc1F)C1CCCC2N1 [Compound 40, hydrochloride] too.
> 30 mg/kg

Thanks! And `c1ccc(CCN2C3CCCC2c2ccccc23)cc1` ?
10 to 30 mg/kg

Then this compound: `CC(C)CN1C2CCCC1c1ccccc12`
10 to 30 mg/kg

Note, next up: c1ccc2c(c1)CC(N1C3CCCC1c1ccccc13)C2 [Compound 11, hydrochloride]
10 to 30 mg/kg

For CO[C@@H]1CC[C@H]2c3ccccc3[C@@H]1N2C(C)C (stereo in doubt) [Compound 34, hydrochloride] then?
10 to 30 mg/kg

Can you check CC(C1CC1)N1C2CCCC1c1ccccc12 (stereo not shown) [Compound 21, hydrochloride] next?
0.1 to 1 mg/kg

Another compound to look at: FC1CCC2NC1c1ccccc12 (stereo not shown) [Compound 30, hydrochloride]
> 30 mg/kg

Next: CC(C)N1C2CCC(F)C1c1ccccc12 (stereo not shown) [Compound 35, hydrochloride]
> 30 mg/kg

Continue with CCCC(C)N1C2CCCC1c1ccccc12 (stereo not shown) [Compound 16, hydrochloride]
10 to 30 mg/kg
